Data origin: PubChem BioAssay AID743279

- assay_comment: qHTS for Inhibitors of Inflammasome Signaling: IL-1-beta AlphaLISA Primary Screen; note: % is set by controls: 0 for no effect and ±100 for the full control effect
- protocol_conditions: THP-1 LPS/ATP IL-1B secretion, 16 h; at 57.5 µM, stronger effect = lower value
Out of some 360,000 compounds screened, about 17,000 (4.7%) were called active. Another 5% or so got no clear call; they are omitted. For the sample, actives were picked, then their nearest neighbours and some compounds at random.
Listed below: activity change values for each entry.
Express it in %; write the number only.

| compound | activity change, % |
| --- | --- |
| COc1cccc(NC(=O)CSc2nccn(-c3ccc4c(c3)OCCO4)c2=O)c1 | -15.5 |
| CC[C@@H]1CC2=C(C(=O)OC(C)(C)O2)[C@@H](CC)O1 | 22.9 |
| COc1ccccc1CC1(C)C(=O)Nc2ccc(OC(F)(F)F)cc21 (configuration not stated) | 4.75 |
| Nc1ncnc2c1ncn2[C@@H]1O[C@H](CNC(=O)[C@H](N)Cc2cccnc2)[C@@H](O)[C@H]1O | -4.6 |
| CC(C)(C)NCC(O)COc1cccc2[nH]c(=O)[nH]c12 (configuration not stated) | 4.98 |

What value of activity change has been reported for the following compound? COc1ccc(OCC(O)CNCCNc2nccc(C(F)(F)F)n2)cc1 (configuration not stated)
-18.5

What value of activity change has been reported for the following compound? CCCCNC(=O)C[C@@H]1C[C@@]2(C(=O)OCC)CCC=C2N(Cc2cccc3ccccc23)C1=O
-0.516
